experiment: Cytotoxicity against human A549 cells after 3 days by MTT assay; type: cell-based; details: human, A549 cells; read-out: MIC
Recorded MCC at 72 h by entry

Below, 9 compounds whose answers are already recorded.
compound=Cc1cnc(C(=O)NN2C(=O)CS[C@@H]2c2ccc([N+](=O)[O-])cc2)cn1 recorded_measurement="> 100 µg/mL"
compound=Cc1cnc(C(=O)NN2C(=O)CS[C@@H]2c2cccc([N+](=O)[O-])c2)cn1 recorded_measurement="> 100 µg/mL"
compound=COc1cc([C@@H]2SCC(=O)N2NC(=O)c2cnc(C)cn2)ccc1O recorded_measurement="> 100 µg/mL"
compound=COc1ccc([C@H]2SCC(=O)N2NC(=O)c2nccnc2N)cc1OC recorded_measurement="> 100 µg/mL"
compound=CCOc1cc([C@@H]2SCC(=O)N2NC(=O)c2cnc(C)cn2)ccc1O recorded_measurement="> 100 µg/mL"
compound=O=C(NN1C(=O)CS[C@@H]1c1ccc(Cl)cc1)c1cnccn1 recorded_measurement="> 100 µg/mL"
compound="Nc1nccnc1C(=O)NN1C(=O)CSC1c1ccccc1 (stereo not given)" recorded_measurement="> 100 µg/mL"
compound=O=C(NN1C(=O)CS[C@@H]1c1ccc([N+](=O)[O-])cc1)c1cnccn1 recorded_measurement="> 100 µg/mL"
compound=Cc1cnc(C(=O)NN2C(=O)CS[C@H]2c2ccc(N(C)C)cc2)cn1 recorded_measurement="> 100 µg/mL"

Shifting focus to the compound that follows.
MCC at 72 h lookup needed for CCOc1cc([C@H]2SCC(=O)N2NC(=O)c2nccnc2N)ccc1O , thanks.
> 100 µg/mL

Provenance of the data: ChEMBL document CHEMBL3792312
